Parameter: composite z-score. Scope: all listed entries.
- Tested on: XIP peptide (Xip251-270) binding
- Measurement notes: small-molecule binders of XIP peptide, primary screen, biochemical, small-molecule microarray, fluorescence 635/667 nm, 0.1 µg/mL protein (AID 1182)
- Experimental parameters: fluorescent protein binding, 635 nm, higher = more signal, called active from +8 up or from −8 down

Molecule: C=CCNC(=O)[C@H]1[C@@H]2C(=O)O[C@@H](c3ccccc3)[C@@H](c3ccccc3)N2[C@@H](c2ccccc2OCCO)[C@]12C(=O)Nc1ccc(C#CCC(C(=O)OC)C(=O)OC)cc12
composite z-score: 0.924
--
Molecule: CC#CC(=O)Oc1ccccc1C=CC(=O)OCC
composite z-score: 0.0524
--
Molecule: CCCCN1CC=CC23O[C@@H]4C=CCCOC(=O)C4[C@H]2C(=O)N(CCCCCCO)[C@@H]3C1=O (some centres undefined)
composite z-score: 0.249
--
Molecule: C=CCOC(=O)[C@H]1[C@@H]2C(=O)O[C@@H](c3ccccc3)[C@@H](c3ccccc3)N2[C@@H](c2ccc(OCCOC(=O)[C@H]3C[C@H]4C(=O)N[C@@H](CCCCNC(C)=O)C(=O)N4[C@H]3c3ccc(O)cc3)cc2)[C@]12C(=O)Nc1ccc(I)cc12
composite z-score: 0.159
--
Molecule: COc1ccccc1CN1C(=O)c2ccccc2[C@@]2(Cc3ccccc3N(CC(C)C)C2=O)[C@@H]1c1ccc(CO)cc1
composite z-score: -0.25
--
Molecule: COCCCNC(=O)[C@]1(CCC(=O)OC(C)(C)C)N=C(c2ccc(OCCCO)cc2)O[C@@H]1c1ccccc1CN=[N+]=[N-]
composite z-score: -0.0552
--
Molecule: Cc1ccc(S[C@]2(C(=O)NCCCN(C)C)CC(=O)N(Cc3cc(C(F)(F)F)cc(C(F)(F)F)c3)[C@@H]2c2ccc(CO)cc2I)cc1
composite z-score: -0.773
--
Molecule: CO[C@H]1O[C@H](CO)[C@@H](OC(=O)Nc2ccccc2)[C@H](OC(=O)Nc2ccccc2)[C@@H]1OC(=O)Nc1ccccc1
composite z-score: 0.228
--
Molecule: NC(=O)[C@@H]1[C@H]2C(=O)O[C@H](c3ccccc3)[C@H](c3ccccc3)N2[C@H](c2ccc(O)cc2)[C@@]12C(=O)Nc1ccccc12
composite z-score: 0.138
--
Molecule: C=CC[C@@]1(C(=O)NCCN2CCOCC2)N=C(c2ccc(OCCCO)cc2)O[C@@H]1c1ccccc1N=[N+]=[N-]
composite z-score: 2.32
--
Molecule: CCC(CC)C(O)C1C=CC2C(=O)NC(=O)C2N1Nc1ccccn1 (centres undefined)
composite z-score: -0.471
--
Molecule: CCOC(=O)C[C@H]1[C@H](OC(=O)c2ccc(C(=O)c3ccccc3)cc2)[C@@H](NC(=O)c2ccccc2)c2cc(OCCCO)ccc2N1C(=O)c1ccc2ccccc2n1
composite z-score: 0.0933
--
Molecule: COC(=O)[C@@]1(Cc2ccc(F)cc2)[C@H]2c3cc(C(=O)N(C)C)n(Cc4cc(F)c(F)c(F)c4)c3C[C@H]2CN1C(=O)c1ccccc1
composite z-score: 0.0639
--
Molecule: CC1(C)[C@@H]2CC(C(O)C3C=CC4C(=O)N(Cc5ccccc5)C(=O)C4N3n3cnnc3)=C[C@H]1C2 (some centres undefined)
composite z-score: 0.902
